targetDesc: D189E hMC4R (Homo sapiens, UniProt P32245, D189E)
Sequence (P32245 whole entry D189E): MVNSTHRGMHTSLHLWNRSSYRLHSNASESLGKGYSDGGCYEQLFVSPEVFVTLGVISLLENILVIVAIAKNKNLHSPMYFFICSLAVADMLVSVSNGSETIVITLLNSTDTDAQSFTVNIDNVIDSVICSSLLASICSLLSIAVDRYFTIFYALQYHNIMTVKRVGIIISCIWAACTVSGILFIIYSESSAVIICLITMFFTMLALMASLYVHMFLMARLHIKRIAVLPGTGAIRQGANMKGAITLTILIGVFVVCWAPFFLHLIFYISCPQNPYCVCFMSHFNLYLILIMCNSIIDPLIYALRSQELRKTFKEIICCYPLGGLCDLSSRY
experiment: cAMP AlphaScreen agonist / inverse agonist assay
I'd appreciate it if you could supply EC50 values for the items below.
Numbers only, in nM.

compound: C[C@@H]1NC(=O)[C@H](C)NC(=O)[C@H](Cc2ccccc2)NC(=O)[C@H](Cc2ccccc2)NC(=O)[C@H](CCCNC(=N)N)NC(=O)[C@@H]2CCCN2C(=O)[C@H]2CCCN2C(=O)[C@H](Cc2ccccc2)NC1=O [MDE3–154c, c[Pro-Arg-Phe-Phe-Ala-Ala-Phe-DPro]]
EC50, nM: 16

compound: C[C@@H]1NC(=O)[C@H](CCC(=O)O)NC(=O)[C@H](Cc2ccccc2)NC(=O)[C@H](Cc2ccccc2)NC(=O)[C@H](CCCNC(=N)N)NC(=O)[C@@H]2CCCN2C(=O)[C@H]2CCCN2C(=O)[C@H](Cc2ccccc2)NC1=O [MDE3–119-5c, c[Pro-Arg-Phe-Phe-Glu-Ala-Phe-DPro]]
EC50, nM: 1100

compound: C[C@@H]1NC(=O)[C@H](CO)NC(=O)[C@H](Cc2ccccc2)NC(=O)[C@H](Cc2ccccc2)NC(=O)[C@H](CCCNC(=N)N)NC(=O)[C@@H]2CCCN2C(=O)[C@H]2CCCN2C(=O)[C@H](Cc2ccccc2)NC1=O [MDE3–85c, c[Pro-Arg-Phe-Phe-Ser-Ala-Phe-DPro]]
EC50, nM: 11

Kindly consider the entry below.
What value of EC50 has been reported for the following compound? C[C@@H]1NC(=O)[C@H](CC(=O)O)NC(=O)[C@H](Cc2ccccc2)NC(=O)[C@H](Cc2ccccc2)NC(=O)[C@H](CCCNC(=N)N)NC(=O)[C@@H]2CCCN2C(=O)[C@H]2CCCN2C(=O)[C@H](Cc2ccccc2)NC1=O [MDE3–119-4c, c[Pro-Arg-Phe-Phe-Asp-Ala-Phe-DPro]]
3000
